- Test system: rodent lifetime carcinogenesis bioassay, tumor incidence TD50
- method.summary: carcinogenic potency in animals, long-term in vivo studies, CPDB compilation (AID 1745844)
- assay.conditions: rat; strain Fischer 344; males; in drinking water; site: thyroid gland; lesion: follicular-cell carcinoma; dosed 97 weeks; study length 97 weeks

query.smiles | TD50 / mg/kg/day
COc1cc(-c2ccc(N=Nc3c(S(=O)(=O)O)cc4cc(S(=O)(=O)O)cc(N)c4c3O)c(OC)c2)ccc1N=Nc1c(S(=O)(=O)O)cc2cc(S(=O)(=O)O)cc(N)c2c1O | 331

----------
- Test system: rodent lifetime carcinogenesis bioassay, tumor incidence TD50
- method.summary: carcinogenic potency in animals, long-term in vivo studies, CPDB compilation (AID 1745844)
- assay.conditions: mouse; strain B6C3F1; males; by gavage; site: liver; lesion: hepatocellular adenoma + hepatocellular carcinoma + neoplastic nodule; dosed 91 weeks; study length 104 weeks

query.smiles | tested.system | TD50 [mg/kg/day]
ClCc1cccnc1 | rodent lifetime carcinogenesis bioassay, tumor incidence TD50 | 324

----------
- System: rodent lifetime carcinogenesis bioassay, tumor incidence TD50
- method.summary: carcinogenic potency in animals, long-term in vivo studies, CPDB compilation (AID 1745844)
- assay.conditions: mouse; strain Swiss; males; inhaled; site: lung; lesion: adenoma; dosed 30 weeks; study length 77 weeks
metric.name: TD50

query.smiles | metric.name | result
C=CCl | TD50 | 14 mg/kg/day

----------
- System: rodent lifetime carcinogenesis bioassay, tumor incidence TD50
- method.summary: carcinogenic potency in animals, long-term in vivo studies, CPDB compilation (AID 1745844)
- assay.conditions: mouse; strain B6C3F1; females; by gavage; site: mesenteric lymph node + multiple organs + small intestine; lesion: malignant lymphoma, lymphocytic type; dosed 103 weeks; study length 104 weeks

compound | TD50
C=CC1CC=CCC1 (stereo unspecified) | 839 mg/kg/day

----------
- Tested on: rodent lifetime carcinogenesis bioassay, tumor incidence TD50
- method.summary: carcinogenic potency in animals, long-term in vivo studies, CPDB compilation (AID 1745844)
- assay.conditions: rat; strain Fischer 344; females; in drinking water; site: skin; lesion: basal-cell adenoma + basal-cell carcinoma; dosed 91 weeks; study length 93 weeks
metric.name: TD50

query.smiles | metric.name | result
COc1cc(-c2ccc(N)c(OC)c2)ccc1N | TD50 | 10.2 mg/kg/day

----------
- System: rodent lifetime carcinogenesis bioassay, tumor incidence TD50
- method.summary: carcinogenic potency in animals, long-term in vivo studies, CPDB compilation (AID 1745844)
- assay.conditions: mouse; strain B6C3F1; males; inhaled; site: lung; lesion: alveolar/bronchiolar adenoma + alveolar/bronchiolar carcinoma; dosed 130 weeks; study length 130 weeks

query.smiles | TD50 / mg/kg/day
O=[O+][O-] | 0.961

----------
- Test system: rodent lifetime carcinogenesis bioassay, tumor incidence TD50
- method.summary: carcinogenic potency in animals, long-term in vivo studies, CPDB compilation (AID 1745844)
- assay.conditions: mouse; strain B6C3F1; females; by gavage; site: lung; lesion: alveolar/bronchiolar adenoma + alveolar/bronchiolar carcinoma; dosed 88 weeks; study length 104 weeks

query.smiles | unit.abbrev | TD50
ClCC(Cl)CCl | mg/kg/day | 14.3

----------
- System: rodent lifetime carcinogenesis bioassay, tumor incidence TD50
- method.summary: carcinogenic potency in animals, long-term in vivo studies, CPDB compilation (AID 1745844)
- assay.conditions: mouse; strain Charles River CD1; males; in feed; site: lung; lesion: adenoma; dosed 104 weeks; study length 104 weeks
The source made the active and inactive calls. How the calls were made is not given here.
metric.name: TD50

query.smiles | tested.system | result
OC[C@H]1O[C@H](O[C@]2(CCl)O[C@H](CCl)[C@@H](O)[C@@H]2O)[C@H](O)[C@@H](O)[C@H]1Cl | rodent lifetime carcinogenesis bioassay, tumor incidence TD50 | 35100 mg/kg/day (inactive)

Data credit: PubChem BioAssay AID1745844
